- Measurement Target: Recombinant human LTC4 synthase (Homo sapiens, UniProt Q16873)
- Sequence (Q16873 1-150): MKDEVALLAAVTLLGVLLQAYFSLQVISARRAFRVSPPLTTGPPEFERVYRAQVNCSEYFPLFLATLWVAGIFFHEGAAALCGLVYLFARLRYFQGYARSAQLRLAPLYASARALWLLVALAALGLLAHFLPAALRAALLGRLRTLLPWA
- Assay Explanation: Biological in vitro assay: LTC4 synthase conversion of LTA4 to LTC4, HTRF detection
Would you mind telling me the reported pIC50 of each entry?
Kindly note that pIC50 refers to -log10 of the concentration in mol/L and answer with the value alone.

Q: # return recorded pIC50 for entry CN(c1ccc(Cl)cc1)c1ccc(C(=O)c2ccc(-n3nncc3-c3ccccc3)c(C(=O)O)c2)cc1 [Example 3:1]
A: 6.81

Q: # return recorded pIC50 for entry CN(c1ccc(Cl)cc1)c1ccc(C(=O)c2ccc(-n3cc(-c4cccc(Cl)c4)nn3)c(C(=O)O)c2)cc1 [Example 2:2]
A: 6.67

Q: # return recorded pIC50 for entry CN(c1ccc(Cl)cc1)c1ccc(C(=O)c2ccc(-n3nncc3-c3cccc(Cl)c3)c(C(=O)O)c2)cc1 [Example 3:2]
A: 7.44

Q: # return recorded pIC50 for entry CN(c1ccc(Cl)cc1)c1ccc(C(=O)c2ccc(-n3cc(-c4ccccc4)nn3)c(C(=O)O)c2)cc1 [Example 2:1]
A: 6.49

Q: # return recorded pIC50 for entry Cc1cc2ncn(-c3ccc(C(=O)c4ccc(N(C)c5ccc(Cl)cc5)cc4)cc3C(=O)O)c2cc1C [Example 1]
A: 6.54

Q: # return recorded pIC50 for entry CN(c1ccc(Cl)cc1)c1ccc(C(=O)c2ccc(-c3nccn3-c3ccccc3)c(C(=O)O)c2)nc1 [Example 9]
A: 6.66

* * *

Would you mind telling me the reported % inhibition of each entry?
- Measurement Target: Recombinant human LTC4 synthase (Homo sapiens, UniProt Q16873)
- Construct: made in house; host or cells: Pichia pastoris ('Piccia pastoralis' [sic])
- Assay Explanation: Biological in vitro assay: LTC4 synthase conversion of LTA4 to LTC4, HTRF detection
- Assay type: biochemical
- Applied Conditions: total concentration of title compound in the assay 10 μM

Q: # return recorded % inhibition for entry Cc1cc2ncn(-c3ccc(C(=O)c4ccc(N(C)c5ccc(Cl)cc5)cc4)cc3C(=O)O)c2cc1C [Example 1]
A: 97%

Q: # return recorded % inhibition for entry CN(c1ccc(Cl)cc1)c1ccc(C(=O)c2ccc(-n3cc(-c4cccc(Cl)c4)nn3)c(C(=O)O)c2)cc1 [Example 2:2]
A: 99%

Q: # return recorded % inhibition for entry CN(c1ccc(Cl)cc1)c1ccc(C(=O)c2ccc(-n3cc(-c4ccccc4)nn3)c(C(=O)O)c2)cc1 [Example 2:1]
A: 99%

Q: # return recorded % inhibition for entry CN(c1ccc(Cl)cc1)c1ccc(C(=O)c2ccc(-n3nncc3-c3ccccc3)c(C(=O)O)c2)cc1 [Example 3:1]
A: 100%

Q: # return recorded % inhibition for entry CN(c1ccc(Cl)cc1)c1ccc(C(=O)c2ccc(-n3nncc3-c3cccc(Cl)c3)c(C(=O)O)c2)cc1 [Example 3:2]
A: 100%

Data credit: patent US20120035217A1
